# System: MS2 coat protein
# ASSAY_INFO: apparent KD of MS2 coat protein; designed switch direction (-1 OFF switch, 1 ON switch): -1; higher = weaker reporter binding
# COND: input ligand: none
Rule: apparent KD of MS2 coat protein of 200 nM or more gives 1; anything lower gives 0.

Worked set:
GAUCACUGAGGAUAUACACAGAUACAAAGUAUCUGAUAGUGACAUGAGGAUCACCCAUGUAGAAGGCAGAGGUC [Omei Ex2 B8] (Eterna round: R97, puzzle: Exclusion 2) :: 0
ACAUGAGGAUCACCCAUGUACUGGGUUUAGUUUCAUCGUUUGAAGGAUAUACUCCGUUAGUUGUCGUAGAAGGUCACAGUUUGG [JR_ExcNG3_Sub008] (Eterna round: R96, puzzle: Exclusion NG 3) :: 1
GCACAGGCAGGAUAUACAUGAGGAUCACCCAUGUGAUCCCUUAGGUACAAAAGUACAAGUAGAAGGGCCUGUGC [Omei Ex3 Model Bachelor's Dilema v45] (Eterna round: R97, puzzle: Exclusion 3) :: 1
AAAGUACAUGAGGAUCACCCAUGUCAGGAUAUUGCCACAAGGCCCGGAGCCCAGAGCGCGAGAAGGGACAUUAG [Eternabot (Original) Solution 12] (Eterna round: R97, puzzle: Exclusion 1) :: 0
AAUGCGGACAAAGGAUAUUGCGGUGACCGGCUCGGCGUACCGAGCCUACAUGAGGAUCACCCAUGUAAGAAGGUUGUCGCUAAA [Mat - Exclusion NG 2 - Mod of JL - D74] (Eterna round: R96, puzzle: Exclusion NG 2) :: 0

Request: Does the reported apparent KD of MS2 coat protein for ACCAGCAUACGGAGAUCCAACAUGAGGAUCACCCAUGUCUGGAAAGCUUUUUGCUUGUCUUAUCCUCCUCUGUGUGC [Design #2] (Eterna round: R97, puzzle: Sensor, turn-off variant 1) fall at or above the 200 nM mark?
Response: 0

Request: Does the reported apparent KD of MS2 coat protein for GCAGCAUAGUUUACUAACUGUUACAUGAGGAUCACCCAUGUCUAGGAUAUGGUCUGGAUUACAGGCCAGAAGGAGAAAAGCUGC [Eli exng3 - 036] (Eterna round: R96, puzzle: Exclusion NG 3) fall at or above the 200 nM mark?
Response: 0

Request: Does the reported apparent KD of MS2 coat protein for CCUGCGUGAGGAUAUACAUGAGGAUCACCCAUGUCACAAUUAACACACUCCGCCUCACGUAGAAGGCACGCAUA [Tienarra] (Eterna round: R97, puzzle: Exclusion 3) fall at or above the 200 nM mark?
Response: 0

Request: Does the reported apparent KD of MS2 coat protein for AGCGCCAUGCUCGUCUUACACAUGAGGAUCACCCAUGUUGGGUCUCAGAUGCGGUAAUAGCCCGUUGAAUCUAGUGG [Eternabot (L1) Solution 38] (Eterna round: R97, puzzle: Sensor, turn-off variant 1) fall at or above the 200 nM mark?
Response: 0

Request: Does the reported apparent KD of MS2 coat protein for AUUAAACAUGUAGGAUAUGCGUGGCGAAGCUAUGCAGAAGGACAUGAGGAUCACCCAUGUAAGAGCGUCUGCGUACAGAUGCAA [Mat - Exclusion NG 1 - Mod of JL - D85] (Eterna round: R96, puzzle: Exclusion NG 1) fall at or above the 200 nM mark?
Response: 0

Request: Does the reported apparent KD of MS2 coat protein for CCUUAGCGAGGAUAUACAUGAGGAUCACCCAUGUGAUCCUAAGGCUGAUCAAGCCUAUGUAGAAGGCGCAAAUC [salish99_ex3_r4_003] (Eterna round: R97, puzzle: Exclusion 3) fall at or above the 200 nM mark?
Response: 1

Request: Does the reported apparent KD of MS2 coat protein for GGACCAUAUCAGGAUAUGACUAGCCUCGGCUAGUCAGAAGGGAUGACAUGAGGAUCACCCAUGUGAUCAGGUCC [E6/1-C2] (Eterna round: R97, puzzle: Exclusion 6) fall at or above the 200 nM mark?
Response: 0

Request: Does the reported apparent KD of MS2 coat protein for GCCGAAAAAGUGAGGAUAUACCUAUGGAUACAUAGGUAGAAGGCACAUGAGGAUCACCCAUGUAUCCUAACGGC [Eli bmx4 4.28] (Eterna round: R97, puzzle: Brourd's mod of Exclusion 4) fall at or above the 200 nM mark?
Response: 0

Request: Does the reported apparent KD of MS2 coat protein for AAAAGGCGAGGAUAUACAGACCUCGGAAAAUCAAAGCAGAGACAUGAGGAUCACCCAUGUAGAAGGCGCAACAA [Geerbiorer] (Eterna round: R97, puzzle: Exclusion 2) fall at or above the 200 nM mark?
Response: 0

Request: Does the reported apparent KD of MS2 coat protein for ACAGCUAAUCUGCUCGUCUACAUGAGGAUCACCCAUGUCAUGGUCCACCUAAGAGUCAGUUACCCAAGUGAUAUUCG [Eternabot (L1) Solution 29] (Eterna round: R97, puzzle: Sensor, turn-off variant 1) fall at or above the 200 nM mark?
Response: 1

Request: Does the reported apparent KD of MS2 coat protein for UUCGGCGCAGGAUAUACAGUUUUGUGUUGAAUCGGCGCGAAACAUGAGGAUCACCCAUGUAGAAGGGUGUUGAA [-24.2, -22.3 kcal, A 27%] (Eterna round: R97, puzzle: Exclusion 2) fall at or above the 200 nM mark?
Response: 1

Request: Does the reported apparent KD of MS2 coat protein for AACCCUGUAGGAUAUCAGGGACUACACAUGAGGAUCACCCAUGUGACCUCAACCUAGUGUUGAGAAGGACAGGUAU [Eternabot (Original) Solution 22] (Eterna round: R97, puzzle: Exclusion 5) fall at or above the 200 nM mark?
Response: 0

Request: Does the reported apparent KD of MS2 coat protein for AAUAACAAGUUGAUCCUUCACAUGAGGAUCACCCAUGUGCUCGUCUUGUAAAGUACUAUCACGAAAGUGAUAGUACA (Eterna round: R97, puzzle: Sensor, turn-off variant 1) fall at or above the 200 nM mark?
Response: 1

---

# Test system: MS2 coat protein
# ASSAY_INFO: apparent KD of MS2 coat protein; higher = weaker reporter binding
# COND: Eterna round: R107; input ligand: arginine 13.2 mM
Rule: apparent KD of MS2 coat protein of 30 nM or more gives label 1; anything lower gives label 0.

Worked set:
UAUCCACAUGAGGAUCACCCAUGUAAGGAAGGAGCGGUGAAUGAACCAGGUAGGUCGCCUUGGUGAGGAUCAUCUAUGGAUUCGU [Exclusion - Arginine A (Freestyle 10)] :: label 0
AAUCAUGAAAACAUGACAUGAGGAUCACUCCGAGGACCGGUACGGCCGCCACUCGCGAGGAGGCACAUGAGGAUCACCCAUGUUA [SS Tryp A #1] :: label 1
UUGGGUUUGCGAAGGAGCGGGUAUGUUUUCUAGUGGAUCCUAACAUGAGGAUCACCCAUGUCCCAGGUAGGUCGCGCGGGUUUGG [12.V] :: label 1
GGCACAUAGUCGGCCGCCACUAGAAUAAGAUGGAAUAACAUGAGGAUCACCCAUGUAAAAGGGACUAGGACCGGGACUAUGUGCC [Goat] :: label 0
AUCUUGUACCGUAAUACUUUACGUUGGGAUACCAGCAUGGACCCAUGCCCUUGGCAGCUUUACAUGAGGAUCACCCAUGUUGUAG [SSTheo A #28] :: label 0

Request: Does the reported apparent KD of MS2 coat protein for ACCUGUACGAAAAGUGCAGGACAGGAAAAUCGAGGACCGGUACGGCCGCCACUCGUAUAAACAAGUGGAUCACCCUUGUAACCUG [TrypAS 1 #AlternativeMS2 #Zipper] fall at or above the 30 nM mark?
Response: label 1

---

# System: MS2 coat protein
# ASSAY_INFO: apparent KD of MS2 coat protein; designed switch direction (-1 OFF switch, 1 ON switch): 1; higher = weaker reporter binding
# COND: Eterna round: R95; input ligand: microRNA oligo, concentration not stated
Quick list: apparent KD of MS2 coat protein per entry.
API: value field is a number in nM; no unit string.

AGUCCAGCCUGAGCUGGACAGAAGCAUGUACAUGAGGAUCACCCAUGUCAUGUACAAGCUUUUUGCUCGUCUUAAUA [Zipper 49 - 3] (puzzle: Sensor for hsa-mir-208a) :: 16.2
UUGCGCUGUCGAGAGGAUAUGCGGUGUUGGACAUGAGGAUCACCCAUGUUUGCGAUAGCUUUACGGUAGAAGGCUCUUCAGCUGC [salish99_ss2_r3_099] (puzzle: Same State 2) :: 45.8
AGCUUGUAACAUGAGGAUCACCCAUGUACAAGCUUUUUGCUCGUUUUACCCGGGCCCGGCGAUUACACGGGCCCGGG [Optimized Design] (puzzle: Sensor for hsa-mir-208a version 2) :: 9.89

Request: Complete the entry with apparent KD of MS2 coat protein for UCUUGGUUUUUGCUCGUUUUUUGUGUUGAACAUGAGGAUCACCCAUGUAUUGUACGGUCCAGUUUAAUAGUGGUCCG [JMF 31] (puzzle: Sensor for hsa-mir-208a)
Response: 13.4

Request: Complete the entry with apparent KD of MS2 coat protein for AACUUACUAUCUCAGGAUAUCAUGUCAAAGACAUGAGGAUCACCCAUGUACCAGGAAACUGGUUAUGAGAAGGGAGAUAGUAAGA [Mat - Same State 2 - Mod - D49] (puzzle: Same State 2)
Response: 128

These entries and their values trace back to the supplement of paper PMC9170038.
